// data source = ChEMBL document CHEMBL4513216

# Measurement Protocol: Toxicity liver stage against HepG2, at 10uM
# Format: cell-based
# Set-up: test concentration 10 uM, cell line HepG2-A16-CD81EGFP
# Measurement Setup: human, HepG2-A16-CD81EGFP cells; read-out: INHIBITION
Result Type: cytotoxicity at 10 µM (%)

# Compound, Reported Measurement
rows = [
    ("COCC(=O)NCC1(COc2cnccn2)C[C@@H](O)[C@@H](O)C1 (some centres undefined)", 2.17),
    ("COc1c(C)cnc(CN2CCOC(Cn3cc(C)cn3)C2)c1C (centres undefined)", -14.7),
    ("Cc1cc(N(C)CC2COc3ccccc3O2)nc(N)n1 (centres undefined)", 17.6),
    ("CCC(C)C(=O)NCc1cc(Br)c(OC)c(OC)c1 (centres undefined)", 2.42),
    ("COCC(=O)N1CCC2(CC1)CN(c1ncccn1)CCO2", -67.3),
    ("CCNc1ncc(C(=O)NCc2ccc3nsnc3c2)cn1", 2.34),
    ("COC(=O)[C@H](C)NC(=O)c1cc(-c2cccc(Cl)c2)no1", -7.25),
    ("Cc1cc(C)n(CC2(CNC(=O)C(c3ccccc3F)N(C)C)CC2)n1 (centres undefined)", 1.64),
    ("Cc1ccc(CN(CCCN2CCOCC2)Cc2[nH]cnc2C)o1", -12.9),
    ("c1ccc(CN2CCc3ncnc(-c4ccsc4)c3CC2)nc1", 3.91),
    ("F[C@@H]1CN(Cc2nccs2)C[C@@H]1OCc1nc2cnccc2[nH]1", 4.15),
    ("Cc1csc2c(C3CCCN(C(=O)CCn4cncn4)C3)nc(C)n12 (centres undefined)", 7.96),
    ("CCCn1ccnc1CN1C[C@@H](CN2CCCN(C)CC2)[C@@H](CO)C1", 2.81),
    ("CCc1nccn1C1CCCN(C(=O)c2cnc3ccccc3n2)C1 (centres undefined)", -4.61),
    ("O=C1CC2(CCN(Cc3ccc(Cl)s3)C2)C(=O)N1 (centres undefined)", -3.3),
    ("O=C(c1cc(Cl)c2c(c1)OCCO2)N1CCCC(n2cncn2)C1 (centres undefined)", 1.56),
    ("COc1ccc(CN(C)C(=O)NC(C)c2nncn2C)cc1F (centres undefined)", -2.85),
    ("COCCN1CCC(C(=O)N(C)CCOc2ccc(C)cc2Cl)C1 (centres undefined)", 13.4),
    ("O=C(NCc1ccccc1Cl)c1[nH]nc2c1CS(=O)(=O)CC2", -0.908),
    ("C=C(C)COc1cccc(C(=O)NCCCc2nnn[nH]2)c1", -0.531),
    ("O=C(c1nnn(-c2ccc(F)cc2)n1)N1CCC(O)CC1", 5.86),
    ("CN(Cc1cc(Br)cn1C)C(=O)c1cc(Cl)ccn1", -11),
    ("CC(=O)NCC(=O)N1Cc2cnc(CC(C)C)nc2C1", -6.12),
    ("Cc1nc(CN2CCCC(N(C)CCOCC(F)(F)F)C2)no1 (centres undefined)", -4.92),
]

###

# Measurement Protocol: Toxicity liver stage against HepG2, at 10uM
# Assay type: cell-based
# Parameters: test concentration 10 uM, cell line HepG2-A16-CD81EGFP
# Measurement Setup: human, HepG2-A16-CD81EGFP cells; read-out: INHIBITION
Result Type: cytotoxicity at 10 µM (%)

# Compound, Readout Unit, Reported Measurement
data = [
    ("CN(Cc1ccccc1C(F)(F)F)C(C(N)=O)c1ccccc1 (stereo not drawn)", "%", 13.2),
    ("O=C(c1ccccn1)N1CCCC2(CCN(c3ccsc3)C2=O)C1 (stereo not drawn)", "%", -136),
    ("Cc1cc(NC(=O)CN2CCn3c(nnc3C3CC3)C2)n(C)n1", "%", -14),
    ("CCSc1ccccc1C(=O)NCC1CCN(Cc2ccsc2)CC1", "%", -8.44),
    ("CSC(C)CCN1CCC(n2cc(C3CCCCC3)nn2)CC1 (stereo not drawn)", "%", -1.39),
    ("Cc1ccc2c(c1)c(CNC(C)Cn1ccnc1)nn2C (stereo not drawn)", "%", -6.14),
    ("COCCC(=O)N1C[C@H]2CN(Cc3cccc(C)n3)C(=O)[C@H]2C1", "%", 4.4),
    ("c1cc(-c2ccc(CN3CCC4(CCNCC4)CC3)s2)[nH]n1", "%", -166),
    ("Cc1cccc(CN2CCC(N(C)Cc3nnc(C4CC4)n3C)C2)c1 (stereo not drawn)", "%", -6.04),
    ("CCCn1nc(-c2nc(COc3ccccc3)no2)ccc1=O", "%", -2.74),
    ("CCc1cc(N2CCC3(CCCNC3=O)C2)nc(N2CCOCC2)n1 (stereo not drawn)", "%", -0.28),
    ("CC(C)CCNC(=O)c1csc(NC2CC2)n1", "%", -0.243),
    ("O=C(c1cc(-c2cccs2)nc2ccccc12)N1CCN(CCO)CC1", "%", -53.2),
    ("CN1CCOCC2(CCCN(C(=O)c3cn(C)cn3)C2)C1 (stereo not drawn)", "%", 8.47),
    ("CN(C)CCN1C(=O)CC[C@@H]2[C@H]1CCN2C(=O)c1ccc(C#N)cc1", "%", -7.82),
    ("O=C(CCCOCc1ccccc1)N1CCCC1c1ccccn1 (stereo not drawn)", "%", -14.4),
    ("O=C(c1cnccn1)N1CCN(c2ccnc3ccsc23)CC1", "%", 12.6),
    ("CNC(=O)CC1CC2(CCN(c3ncccn3)CC2)c2ccccc21 (stereo not drawn)", "%", 11.6),
    ("Cc1ccccc1C1(CNC(=O)NCCc2nnc3n2CCC3)CC1", "%", 2.48),
    ("CCN(CC)C(=O)Cn1cc(C(=O)NCCCc2scnc2C)nn1", "%", -7.38),
    ("CN(Cc1cnc(N)nc1)C(=O)c1coc(COc2cccc(F)c2)n1", "%", 0.998),
    ("COc1cc(N2CCCC(CO)(Cc3ccccc3F)C2)ncn1 (stereo not drawn)", "%", 45.7),
    ("O=C(CCc1ccccc1Br)NS(=O)(=O)c1ccc2c(c1)OCCO2", "%", -10.7),
    ("O=C1CCCN1CCC1CCN(C2CCCNC2)CC1 (stereo not drawn)", "%", 2.37),
    ("Cn1nnnc1SCCC(=O)NCC1Cc2ccccc2O1 (stereo not drawn)", "%", 9.35),
    ("O=C(Cc1ccc(F)cc1)NCC(O)(c1cccs1)C1CC1 (stereo not drawn)", "%", -39.3),
    ("O=C(c1ccc(O)cn1)N1CCOC(c2ccc(Cl)c(Cl)c2)C1 (stereo not drawn)", "%", -4.57),
    ("Cc1cccc(-n2cnc(Cl)c2CO)c1", "%", -11.8),
    ("Cc1ccc(N(C)Cc2nnnn2C2CC2)c(C)c1", "%", 8.81),
    ("COc1ccc(NC(=O)C2CCOC2)c(N2CCN(C(C)=O)CC2)n1 (stereo not drawn)", "%", -12.2),
    ("Cc1nc(C(C)NC(=O)NCc2nccn2CC(C)C)cs1 (stereo not drawn)", "%", -20.7),
    ("CCc1oc(C(=O)N(C)Cc2nonc2C)cc1CN(CC)CC", "%", -10.3),
    ("Cc1oc(-c2nc(C#N)c(N(C)C)o2)cc1S(=O)(=O)N1CCCC1", "%", -8.87),
    ("N#Cc1cccc(CN2C[C@@H](F)[C@@H](OCc3nc4cnccc4[nH]3)C2)c1", "%", 3.62),
    ("CCc1nc(NCC(=O)N2CCOCC2)c2c(n1)c(C)nn2CC", "%", 7.05),
    ("Cc1ccc(CNC(=O)COc2ccc3c(c2)OCC3O)cc1 (stereo not drawn)", "%", -5.67),
    ("Cc1[nH]ncc1CCCNC(=O)Nc1ccccc1", "%", -2.2),
    ("COC(=O)[C@H](C)NC(=O)Cc1c(C)nc2cc(=O)[nH]n2c1C", "%", -1.51),
    ("CC(NC(=O)NCC1(O)CCC1)c1ccc(OCC2CC2)c(F)c1 (stereo not drawn)", "%", -4.69),
    ("CC1CCN(c2cc(-n3cnc(C(=O)N4CCSCC4)c3)ncn2)CC1", "%", 0.668),
    ("CCc1cnc(C)nc1NC(CC)c1cnn(C)c1 (stereo not drawn)", "%", -11.7),
    ("Cc1noc(C)c1C(=O)N[C@@H]1CCC[C@@H](Oc2ccccc2)[C@@H]1O", "%", 4.72),
    ("CCCc1nnc(NCc2ccc(OC)c(C#N)c2)o1", "%", -0.808),
    ("O=C(Cc1ccc2c(c1)OCO2)N1CCN(c2ccccc2Cl)C(=O)C1", "%", -0.874),
    ("CC(C)(C)c1nc(NS(=O)(=O)c2ccc(F)cc2)no1", "%", 4.71),
    ("Cc1nnc2sc(-c3cc(C(C)C)n[nH]3)nn12", "%", -7.88),
    ("CC(C)c1nccn1C1CCCN(C(=O)c2cnn(C)c2C2CC2)C1 (stereo not drawn)", "%", -5.5),
    ("O=C(c1ccc(Cl)cc1)N1CCCn2nnc(Cn3cccn3)c2C1", "%", -10.3),
]
